Species on record: Rattus norvegicus
experiment-description: Open TG-GATES - Regimen: Single
Type: toxicity, organism-based, Sprague-Dawley
Design: regimen Single, gender Male, age 6 weeks
experimental-context: in vivo, po, 0 mg/kg, 3 h, tissue Plasma, route gavage, dose level Control

- compound: "CNC(=C[N+](=O)[O-])NCCSCc1ccc(CN(C)C)o1"
  gamma-GTP [IU/L]: 1
- compound: "COC(=O)C1=C(C)NC(C)=C(C(=O)OC)C1c1ccccc1[N+](=O)[O-]"
  gamma-GTP [IU/L]: 1
- compound: "CCOc1ccc(NC(C)=O)cc1"
  gamma-GTP [IU/L]: 1.8
- compound: "CN(C)CCC(c1ccc(Cl)cc1)c1ccccn1 (stereo unspecified)"
  gamma-GTP [IU/L]: 1.4
- compound: "CN1C(=O)CCS(=O)(=O)C1c1ccc(Cl)cc1 (stereo unspecified)"
  gamma-GTP [IU/L]: 1
- compound: "NC1=NC(=O)C(c2ccccc2)O1 (stereo unspecified)"
  gamma-GTP [IU/L]: 1.2
